Each recorded value in this set is attributed to patent US4044134A.

# Test system: passive cutaneous anaphylaxis (PCA) reaction
# Method notes: passive cutaneous anaphylaxis (PCA) test, i.v. or oral administration
# Assay type: in vivo, male Charles River Wistar rats
# Study conditions: Rattus norvegicus, iv; I.V., 0.03 mg/kg; read-out: degree (%) of protection, PCA test
# Experimental: In the PCA test, normal animals are injected intradermally (i.d.) with antibodies contained in serum obtained from actively sensitized animals. The animals are then challenged intravenously with antigen mixed with a dye such as Evans' Blue. […] The test animals are then asphyxiated and the intensity of the reaction determined by measuring the diameter and intensity of the blue coloration on the inner surface of the animals skin. […]
Where a name gives a salt, the structure may show the parent alone.
Readout name: inhibition in vivo at 0.03 mg/kg (%)
Report the value in % with no unit label.

Answered examples (5):
| Compound | Numeric readout |
| --- | --- |
| CCOC(=O)c1nc2nc3ccc(Cl)cc3cc2c(=O)[nH]1 | 0 |
| COc1cc2cc3c(=O)[nH]c(C)nc3nc2cc1OC | 11 |
| CCOC(=O)c1nc2nc3cc(OC)c(OCC)cc3cc2c(=O)[nH]1 | 85 |
| CCOC(=O)c1nc2nc3cccc(Cl)c3cc2c(=O)[nH]1 | 11 |
| CCOC(=O)c1nc2nc3cc(OC)c(O)cc3cc2c(=O)[nH]1 [COOC2 H5/H/H/OH/OCH3/H, Trifluoroacetate] | 97 |

Summary: COc1cc2cc3c(=O)[nH]c(C(=O)O)nc3nc2cc1OC , passive cutaneous anaphylaxis (PCA) reaction, inhibition in vivo at 0.03 mg/kg = 96

Summary: O=C(O)c1nc2nc3ccc(O)cc3cc2c(=O)[nH]1 , passive cutaneous anaphylaxis (PCA) reaction, inhibition in vivo at 0.03 mg/kg = 91

Summary: CCOC(=O)c1nc2nc3cc(OCC)c(OCC)cc3cc2c(=O)[nH]1 , passive cutaneous anaphylaxis (PCA) reaction, inhibition in vivo at 0.03 mg/kg = 60

---

In this section, each of the molecules is paired with its reported inhibition in vivo at 3 mg/kg.
# Tested on: passive cutaneous anaphylaxis (PCA) reaction
# Method notes: passive cutaneous anaphylaxis (PCA) test, i.v. or oral administration
# Type: in vivo, male Charles River Wistar rats
# Study conditions: Rattus norvegicus, iv; I.V., 3 mg/kg; read-out: degree (%) of protection, PCA test
Report the value in % with no unit label.

Answered examples (2):
| Molecule | Readout name | Numeric readout |
| --- | --- | --- |
| NC(=O)c1nc2nc3ccccc3cc2c(=O)[nH]1 | inhibition in vivo at 3 mg/kg | 98 |
| CCOC(=O)c1nc2nc3ccc(OCc4ccccc4)cc3cc2c(=O)[nH]1 | inhibition in vivo at 3 mg/kg | 85 |

Summary: CCOC(=O)CNC(=O)c1nc2nc3cc(OC)c(OC)cc3cc2c(=O)[nH]1 , passive cutaneous anaphylaxis (PCA) reaction, inhibition in vivo at 3 mg/kg = 32

Summary: O=C(O)c1cc(=O)c2c(OCC(O)COc3cccc4oc(C(=O)O)cc(=O)c34)cccc2o1 [Disodium chromoglycate, reference compound] , passive cutaneous anaphylaxis (PCA) reaction, inhibition in vivo at 3 mg/kg = 78

Summary: CCOC(=O)c1nc2nc3cc(OC)ccc3cc2c(=O)[nH]1 , passive cutaneous anaphylaxis (PCA) reaction, inhibition in vivo at 3 mg/kg = 90

Summary: CCCCOC(=O)c1nc2nc3cc(OC)c(OC(C)=O)cc3cc2c(=O)[nH]1 , passive cutaneous anaphylaxis (PCA) reaction, inhibition in vivo at 3 mg/kg = 100

Summary: CCOC(=O)c1nc2nc3cc(OCC)c(OC)cc3cc2c(=O)[nH]1 , passive cutaneous anaphylaxis (PCA) reaction, inhibition in vivo at 3 mg/kg = 97

Summary: CCOC(=O)c1nc2nc3c(OC)c(OC)ccc3cc2c(=O)[nH]1 , passive cutaneous anaphylaxis (PCA) reaction, inhibition in vivo at 3 mg/kg = 100

Summary: CCOC(=O)c1nc2nc3ccc(OC)cc3cc2c(=O)[nH]1 , passive cutaneous anaphylaxis (PCA) reaction, inhibition in vivo at 3 mg/kg = 100

Summary: CCCCOC(=O)c1nc2nc3cc(OC)c(OCc4ccccc4)cc3cc2c(=O)[nH]1 , passive cutaneous anaphylaxis (PCA) reaction, inhibition in vivo at 3 mg/kg = 100

Summary: CCCCOC(=O)c1nc2nc3cc(OC)c(OC)cc3cc2c(=O)[nH]1 , passive cutaneous anaphylaxis (PCA) reaction, inhibition in vivo at 3 mg/kg = 90

Summary: O=c1[nH]cnc2nc3ccccc3cc12 [pyrimido[4,5-b]quinolin-4(3H)-one, reference compound] , passive cutaneous anaphylaxis (PCA) reaction, inhibition in vivo at 3 mg/kg = 33

Summary: O=C(O)c1nc2nc3ccc(O)cc3cc2c(=O)[nH]1 , passive cutaneous anaphylaxis (PCA) reaction, inhibition in vivo at 3 mg/kg = 100

---

# Tested on: passive cutaneous anaphylaxis (PCA) reaction
# Method notes: passive cutaneous anaphylaxis (PCA) test, i.v. or oral administration
# Assay type: in vivo, male Charles River Wistar rats
# Study conditions: Rattus norvegicus, iv; I.V., 10 mg/kg; read-out: degree (%) of protection, PCA test
Readout name: inhibition in vivo at 10 mg/kg (%)
Report the value in % with no unit label.

| Compound | Readout name | Numeric readout |
| --- | --- | --- |
| CCOC(=O)c1nc2ncccc2c(=O)[nH]1 | inhibition in vivo at 10 mg/kg | 95 |
| CCOC(=O)c1nc2nc3ccccc3cc2c(=O)[nH]1 | inhibition in vivo at 10 mg/kg | 100 |
| O=C(O)c1nc2cc3ccccc3cc2c(=O)[nH]1 | inhibition in vivo at 10 mg/kg | 100 |
| O=C(O)c1cc(=O)c2c(OCC(O)COc3cccc4oc(C(=O)O)cc(=O)c34)cccc2o1 [Disodium chromoglycate, reference compound] | inhibition in vivo at 10 mg/kg | 89 |

Next up:
Summary: CCOC(=O)c1nc2cc3ccccc3cc2c(=O)[nH]1 , passive cutaneous anaphylaxis (PCA) reaction, inhibition in vivo at 10 mg/kg = 27

---

# Test system: passive cutaneous anaphylaxis (PCA) reaction
# Method notes: passive cutaneous anaphylaxis (PCA) test, i.v. or oral administration
# Type: in vivo, male Charles River Wistar rats
# Study conditions: Rattus norvegicus, iv; I.V., 1 mg/kg; read-out: degree (%) of protection, PCA test
Where a name gives a salt, the structure may show the parent alone.
Please use true whenever inhibition in vivo at 1 mg/kg is not below 70%, and false whenever it is.

Sample answers from the record:
| Molecule | Qualitative label |
| --- | --- |
| CCOC(=O)c1nc2nc3ccccc3cc2c(=O)[nH]1 | true |
| CCCCOc1cc2nc3nc(C(=O)OCC)[nH]c(=O)c3cc2cc1OCC | true |
| CCOC(=O)c1nc2nc3ccccc3c(-c3ccccc3)c2c(=O)[nH]1 | true |
| O=C(O)c1nc2cc3ccccc3cc2c(=O)[nH]1 | false |
| CCCCOC(=O)c1nc2nc3ccccc3cc2c(=O)[nH]1 | true |

Is it the case that CCOC(=O)c1nc2nc3cc(OC)c(OC)cc3cc2c(=O)[nH]1 has inhibition in vivo at 1 mg/kg reaching or exceeding 70%? true

Is it the case that O=C(O)c1nc2nc3ccccc3cc2c(=O)[nH]1 [COONa/H/H/H/H/H, Disodium Salt] has inhibition in vivo at 1 mg/kg reaching or exceeding 70%? true

Is it the case that COc1cc2cc3c(=O)[nH]c(C(C)=O)nc3nc2cc1OC has inhibition in vivo at 1 mg/kg reaching or exceeding 70%? false

---

# System: passive cutaneous anaphylaxis (PCA) reaction
# Method notes: passive cutaneous anaphylaxis (PCA) test, i.v. or oral administration
# Type: in vivo, male Charles River Wistar rats
# Study conditions: Rattus norvegicus, iv; I.V., 3 mg/kg; read-out: degree (%) of protection, PCA test
In this section, each of the compounds is paired with its reported inhibition in vivo at 3 mg/kg.
Report the value in % with no unit label.

| Compound | Readout name | Numeric readout |
| --- | --- | --- |
| COc1cc2cc3c(=O)[nH]c(C(=O)OCCO)nc3nc2cc1OC | inhibition in vivo at 3 mg/kg | 97 |
| COc1cc2cc3c(=O)[nH]c(C(=O)NO)nc3nc2cc1OC | inhibition in vivo at 3 mg/kg | 92 |
| CCOC(=O)Cc1nc2cc3ccccc3cc2c(=O)[nH]1 [reference compound] | inhibition in vivo at 3 mg/kg | 49 |

# inhibition in vivo at 3 mg/kg (compound: O=C(O)c1nc2cc3ccccc3cc2c(=O)[nH]1 ) is 36

# inhibition in vivo at 3 mg/kg (compound: CCCCOc1cc2nc3nc(C(=O)OCC)[nH]c(=O)c3cc2cc1OCC ) is 90

# inhibition in vivo at 3 mg/kg (compound: O=c1[nH]cnc2cc3ccccc3cc12 [Benzo[g]quinazolin-4(3H)-one, reference compound] ) is 31

# inhibition in vivo at 3 mg/kg (compound: CCOC(=O)c1nc2nc3ccc(SC)cc3cc2c(=O)[nH]1 ) is 88

# inhibition in vivo at 3 mg/kg (compound: CCOC(=O)c1nc2nc3ccccc3c(-c3ccccc3)c2c(=O)[nH]1 ) is 100
